experiment: Spectroscopic measurements (absorption, emission, quantum yield, extinction coefficient); assay type: physicochemical; settings: BDNCA library, extinction coefficient; in M-1 cm-1 (unit assumed)
This listing pairs molecules with measured ε.

chemical.structure	ε
COc1cccc(F)c1/C=C/C1=[N+]2C(=C(c3ccc(NC(=O)CCl)cc3)c3cccn3[B-]2(F)F)C(C)=C1	56,018
COc1cc(/C=C/C2=[N+]3C(=C(c4ccc(NC(=O)CCl)cc4)c4cccn4[B-]3(F)F)C(C)=C2)cc(Br)c1OC	49,428
COc1ccc(-c2ccc(/C=C/C3=[N+]4C(=C(c5ccc(NC(=O)CCl)cc5)c5cccn5[B-]4(F)F)C(C)=C3)o2)cc1Cl	21,968

* * *

assay: Spectroscopic measurements (absorption, emission, quantum yield, extinction coefficient); type: physicochemical; conditions: fluorescence emission maximum, BDNCA library

chemical.structure	Flu
Cc1cc(/C=C/c2ccc(N(C)C)c3ccccc23)n2c1C(c1ccc(NC(=O)CCl)cc1)=C1C=CC=[N+]1[B-]2(F)F	weak
CC1=CC(/C=C/C=C/c2ccco2)=[N+]2C1=C(c1ccc(NC(=O)CCl)cc1)c1cccn1[B-]2(F)F	weak
CC1=CC(/C=C/c2cccc(OC(F)(F)C(F)F)c2)=[N+]2C1=C(c1ccc(NC(=O)CCl)cc1)c1cccn1[B-]2(F)F	weak

* * *

test: Spectroscopic measurements (absorption, emission, quantum yield, extinction coefficient); type: physicochemical; conditions: absorption maximum, BDNCA library
This listing pairs compounds with measured Abs.
readout.label: Abs (nm)

compound	units	measured.number
CC1=CC(/C=C/c2ccccc2Oc2ccc(F)cc2)=[N+]2C1=C(c1ccc(NC(=O)CCl)cc1)c1cccn1[B-]2(F)F [BDNCA-341]	nm	558
CC1=CC(/C=C/C=C/c2ccco2)=[N+]2C1=C(c1ccc(NC(=O)CCl)cc1)c1cccn1[B-]2(F)F [BDNCA-417]	nm	519
Cc1cc(/C=C/c2ccc(SC(F)(F)F)cc2)n2c1C(c1ccc(NC(=O)CCl)cc1)=C1C=CC=[N+]1[B-]2(F)F [BDNCA-363]	nm	558
CC1=CC(/C=C/c2cccc(OC(F)(F)C(F)F)c2)=[N+]2C1=C(c1ccc(NC(=O)CCl)cc1)c1cccn1[B-]2(F)F [BDNCA-345]	nm	621
CC1=CC(/C=C/c2cc(C)c(C)cc2C)=[N+]2C1=C(c1ccc(NC(=O)CCl)cc1)c1cccn1[B-]2(F)F [BDNCA-343]	nm	562
CC1=CC(/C=C/c2cccc(B(O)O)c2)=[N+]2C1=C(c1ccc(NC(=O)CCl)cc1)c1cccn1[B-]2(F)F [BDNCA-404]	nm	556
Cc1cc(/C=C/c2ccc3c(c2)OC(F)(F)O3)n2c1C(c1ccc(NC(=O)CCl)cc1)=C1C=CC=[N+]1[B-]2(F)F [BDNCA-332]	nm	556
CC1=CC(/C=C/c2ccc(-c3ccc(Br)cc3)o2)=[N+]2C1=C(c1ccc(NC(=O)CCl)cc1)c1cccn1[B-]2(F)F [BDNCA-428]	nm	506
